# target-under-test: T1, Nf DNA polymerase (Bacillus phage Nf, UniProt B7SSM2 1-572)
# T1 sequence: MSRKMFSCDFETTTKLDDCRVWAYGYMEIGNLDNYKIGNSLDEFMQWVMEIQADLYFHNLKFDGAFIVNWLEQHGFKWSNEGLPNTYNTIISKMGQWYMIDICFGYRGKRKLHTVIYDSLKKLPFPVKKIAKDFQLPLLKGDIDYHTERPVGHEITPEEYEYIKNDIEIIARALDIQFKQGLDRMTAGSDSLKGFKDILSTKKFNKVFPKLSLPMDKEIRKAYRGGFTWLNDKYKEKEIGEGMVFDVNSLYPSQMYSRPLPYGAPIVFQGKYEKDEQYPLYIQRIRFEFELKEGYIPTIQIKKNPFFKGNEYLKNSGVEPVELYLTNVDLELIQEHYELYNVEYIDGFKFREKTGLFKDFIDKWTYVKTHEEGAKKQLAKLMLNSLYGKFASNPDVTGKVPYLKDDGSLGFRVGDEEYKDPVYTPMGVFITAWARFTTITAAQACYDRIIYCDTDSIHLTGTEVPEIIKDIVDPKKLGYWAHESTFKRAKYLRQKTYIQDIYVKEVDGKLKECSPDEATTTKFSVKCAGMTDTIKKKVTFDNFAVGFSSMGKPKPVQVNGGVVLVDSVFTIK
# assay-remarks: EMSA
endpoint: Kd
Answer format reminder: number followed by unit.

Task: Look up and report measured Kd for this entry: sp1/sp1c+6 (15/21mer primer/template) (dsDNA) DNA 1: GATCACAGTGAGTAC DNA 2: TCTATTGTACTCACTGTGATC
Result: 1.5 nM
